test_protocol: Dissolubility or compatibility (maximum dissolved concentration, HPLC)
Type: physicochemical
stated_conditions: 25° C., toluene
quantity_kind: Dissolubility, Toluene (% by mass)

[a] C=CSc1cccc2c(SC=C)cccc12
[b] Sc1ccc2cc(S)ccc2c1
[c] C=CCSc1cccc2c(SCC=C)cccc12
Task item: Ranking field: Dissolubility, Toluene; order: falling. Quick reminder: the answer is the labels in the order asked.
Reply: a, c, b
(a: 59.6 % by mass, c: 26.1 % by mass, b: 0.64 % by mass)

###

test_protocol: Dissolubility or compatibility (maximum dissolved concentration, HPLC)
Type: physicochemical
stated_conditions: 25° C., ethyl acetate
quantity_kind: Dissolubility, Ethyl acetate (% by mass)

[1] C=CCSc1cccc2c(SCC=C)cccc12 [Example 15DANDSH, 1,5-bis(allylthio)naphthalene]
[2] CSc1cccc2c(SC)cccc12 [Example 15DMNDSH, 1,5-bis(methylthio)naphthalene]
Task item: Please choose the item with the lower Dissolubility, Ethyl acetate value from this pair: 1 and 2 Pick one; state its label.
Reply: 2

[A] O=C(O)CSc1cccc2c(SCC(=O)O)cccc12 [Example 15DCNDSH, 1,5-bis(carboxymethylthio)naphthalene]
[B] c1cc(SCC2CO2)c2cccc(SCC3CO3)c2c1 (stereo not drawn) [Example 15DGNDSH, 1,5-bis(glycidylthio)naphthalene]
Task item: Which is greater in Dissolubility, Ethyl acetate, the first item A or the second item B ? Pick one; state its label.
Reply: B
(B: 51.9 % by mass, A: 0.03 % by mass)

[1] Sc1ccc2cc(S)ccc2c1 [Example 26NDSH, 2,6-naphthalenedithiol]
[2] C=C(C)C(=O)Sc1ccc2ccc(SC(=O)C(=C)C)cc2c1 [Example 27NDSHMA, 2,7-bis(methacryloylthio)naphthalene]
Task item: Please choose the item with the lower Dissolubility, Ethyl acetate value from this pair: 1 and 2 Pick one; state its label.
Reply: 1
(1: 0.65 % by mass, 2: 3.20 % by mass)

###

test_protocol: Dissolubility or compatibility (maximum dissolved concentration, HPLC)
Format: physicochemical
stated_conditions: 25° C., propylene glycol monomethyl ether acetate
quantity_kind: Dissolubility, PGMEA (% by mass)

[1] C=C(C)C(=O)Sc1ccc2cc(SC(=O)C(=C)C)ccc2c1
[2] C=C(C)C(=O)Sc1ccc2c(SC(=O)C(=C)C)cccc2c1
Task item: Please choose the item with the lower Dissolubility, PGMEA value from this pair: 1 and 2 Pick one; state its label.
Reply: 1
(1: 1.46 % by mass, 2: 31.1 % by mass)

[a] C=CC(=O)Sc1cccc2c(SC(=O)C=C)cccc12
[b] C=C(C)C(=O)Sc1cccc2c(SC(=O)C(=C)C)cccc12
Task item: Please choose the item with the lower Dissolubility, PGMEA value from this pair: a and b Pick one; state its label.
Reply: a
(a: 1.50 % by mass, b: 3.34 % by mass)

###

quantity_kind: melting point

Examples with answers:
C=CCSc1cccc2c(SCC=C)cccc12 : 78 to 79 °C
C=CC(=O)Sc1ccc2c(SC(=O)C=C)cccc2c1 : 64 to 66 °C
CSc1ccc2c(SC)cccc2c1 : 52 to 53 °C

Switching to the query record.
Task item: Report melting point, nothing else, for this molecule: Sc1ccc2cc(S)ccc2c1
Reply: 196 to 197 °C

###

test_protocol: Refractive index (abbe refractometer)
Type: physicochemical
stated_conditions: 25° C., 589 nm; measured as undiluted liquid (also thiol-ene-based resins)
quantity_kind: Refractive index

C=CCSc1ccc2c(SCC=C)cccc2c1 : 1.667
c1cc(SCC2CO2)c2ccc(SCC3CO3)cc2c1 (stereo not shown) : 1.665
OCCSc1ccc2c(SCCO)cccc2c1 [Example 16DHENDSH, 1,6-bis(2-hydroxyethylthio)naphthalene] : 1.672
C=CSc1ccc2c(SC=C)cccc2c1 : 1.699

###

test_protocol: Refractive index (abbe refractometer)
Assay type: physicochemical
stated_conditions: 25° C., 589 nm; DMI solutions of different concentrations, value at 100% by mass by extrapolation
quantity_kind: Refractive index

Sc1ccc2ccc(S)cc2c1 : 1.721
CSc1cccc2c(SC)cccc12 : 1.690
OCCSc1cccc2c(SCCO)cccc12 [Example 15DHENDSH, 1,5-bis(2-hydroxyethylthio)naphthalene] : 1.668
CSc1ccc2c(SC)cccc2c1 : 1.690
c1cc(SCC2CO2)c2cccc(SCC3CO3)c2c1 (stereo not shown) : 1.621
Sc1cccc2c(S)cccc12 : 1.711
O=C(O)CSc1cccc2c(SCC(=O)O)cccc12 : 1.657
Sc1ccc2cc(S)ccc2c1 : 1.718
O=C(O)CSc1ccc2c(SCC(=O)O)cccc2c1 : 1.663
Sc1ccc2c(S)cccc2c1 : 1.722

###

test_protocol: Dissolubility or compatibility (maximum dissolved concentration, HPLC)
Format: physicochemical
stated_conditions: 25° C., toluene
quantity_kind: Dissolubility, Toluene (% by mass)

Examples with answers:
C=CC(=O)Sc1ccc2c(SC(=O)C=C)cccc2c1 : 58.4
CSc1cccc2c(SC)cccc12 : 2.36
OCCSc1cccc2c(SCCO)cccc12 [Example 15DHENDSH, 1,5-bis(2-hydroxyethylthio)naphthalene] : 0.19
Sc1cccc2c(S)cccc12 : 7.26
C=C(C)C(=O)Sc1cccc2c(SC(=O)C(=C)C)cccc12 : 6.73
C=C(C)C(=O)Sc1ccc2cc(SC(=O)C(=C)C)ccc2c1 : 3.73
C=C(C)C(=O)Sc1ccc2ccc(SC(=O)C(=C)C)cc2c1 : 6.84
C=C(C)C(=O)Sc1ccc2c(SC(=O)C(=C)C)cccc2c1 : 50.7

[1] Sc1ccc2ccc(S)cc2c1
[2] c1cc(SCC2CO2)c2cccc(SCC3CO3)c2c1 (stereo not drawn)
[3] C=CC(=O)Sc1cccc2c(SC(=O)C=C)cccc12
[4] OCCSc1ccc2c(SCCO)cccc2c1 [Example 16DHENDSH, 1,6-bis(2-hydroxyethylthio)naphthalene]
Task item: // ascending sort on recorded Dissolubility, Toluene Quick reminder: the answer is the labels in the order asked.
Reply: 1, 4, 3, 2
(1: 0.76 % by mass, 4: 1.69 % by mass, 3: 2.61 % by mass, 2: 56.8 % by mass)

###

test_protocol: Dissolubility or compatibility (maximum dissolved concentration, HPLC)
Format: physicochemical
stated_conditions: 25° C., methanol
quantity_kind: Dissolubility, Methanol (% by mass)

Examples with answers:
C=C(C)C(=O)Sc1ccc2cc(SC(=O)C(=C)C)ccc2c1 : 0.13
Sc1cccc2c(S)cccc12 : 1.08
Sc1ccc2ccc(S)cc2c1 : 0.16
C=C(C)C(=O)Sc1ccc2c(SC(=O)C(=C)C)cccc2c1 : 2.49
Sc1ccc2cc(S)ccc2c1 : 0.11

[I] C=C(C)C(=O)Sc1cccc2c(SC(=O)C(=C)C)cccc12
[II] C=C(C)C(=O)Sc1ccc2ccc(SC(=O)C(=C)C)cc2c1
Task item: Please choose the item with the lower Dissolubility, Methanol value from this pair: I and II Pick one; state its label.
Reply: II
(II: 0.20 % by mass, I: 0.36 % by mass)

###

test_protocol: Dissolubility or compatibility (maximum dissolved concentration, HPLC)
Format: physicochemical
stated_conditions: 25° C., styrene
Method: In more detail, the sample was added to a predetermined amount of a solvent or a polymerizable component until the sample was no longer dissolved, and the sample content of the liquid layer (the solvent layer) of the resulting mixture was analyzed using an HPLC (“SPD-20A” manufactured by SHIMADZU CORPORATION), and thus the concentration (the maximum dissolved concentration) of the sample in the liquid layer (the solvent layer) was determined as a solubility.
quantity_kind: Dissolubility, Styrene (% by mass)

c1cc(SCC2CO2)c2cccc(SCC3CO3)c2c1 (stereo not shown) : 43.6
CSc1cccc2c(SC)cccc12 : 3.13
C=C(C)C(=O)Sc1ccc2cc(SC(=O)C(=C)C)ccc2c1 : 5.00
C=C(C)C(=O)Sc1ccc2c(SC(=O)C(=C)C)cccc2c1 : 51.1
C=CCSc1cccc2c(SCC=C)cccc12 : 10.6

[A] C=C(C)C(=O)Sc1ccc2ccc(SC(=O)C(=C)C)cc2c1
[B] C=CC(=O)Sc1ccc2c(SC(=O)C=C)cccc2c1
[C] C=CC(=O)Sc1cccc2c(SC(=O)C=C)cccc12
[D] OCCSc1ccc2c(SCCO)cccc2c1 [Example 16DHENDSH, 1,6-bis(2-hydroxyethylthio)naphthalene]
[E] OCCSc1cccc2c(SCCO)cccc12 [Example 15DHENDSH, 1,5-bis(2-hydroxyethylthio)naphthalene]
Task item: Output the entries ranked by Dissolubility, Styrene from maximum down to minimum. Quick reminder: the answer is the labels in the order asked.
Reply: B, A, C, D, E

[P] C=CSc1cccc2c(SC=C)cccc12
[Q] C=C(C)C(=O)Sc1cccc2c(SC(=O)C(=C)C)cccc12
[R] CSc1ccc2c(SC)cccc2c1
Task item: // ascending sort on recorded Dissolubility, Styrene Quick reminder: the answer is the labels in the order asked.
Reply: Q, P, R
(Q: 10.4 % by mass, P: 45.8 % by mass, R: 68.7 % by mass)

###

test_protocol: Dissolubility or compatibility (maximum dissolved concentration, HPLC)
Format: physicochemical
stated_conditions: 25° C., ethyl acetate
quantity_kind: Dissolubility, Ethyl acetate (% by mass)

Examples with answers:
C=CSc1cccc2c(SC=C)cccc12 : 39.0
C=CC(=O)Sc1cccc2c(SC(=O)C=C)cccc12 : 1.57
OCCSc1cccc2c(SCCO)cccc12 [Example 15DHENDSH, 1,5-bis(2-hydroxyethylthio)naphthalene] : 3.01

[a] C=C(C)C(=O)Sc1cccc2c(SC(=O)C(=C)C)cccc12
[b] C=CC(=O)Sc1ccc2c(SC(=O)C=C)cccc2c1
[c] O=C(O)CSc1ccc2c(SCC(=O)O)cccc2c1
[d] C=C(C)C(=O)Sc1ccc2cc(SC(=O)C(=C)C)ccc2c1
Task item: Output the entries ranked by Dissolubility, Ethyl acetate from maximum down to minimum. Quick reminder: the answer is the labels in the order asked.
Reply: b, a, d, c
(b: 56.3 % by mass, a: 4.36 % by mass, d: 1.08 % by mass, c: 0.56 % by mass)

[a] Sc1ccc2ccc(S)cc2c1
[b] C=C(C)C(=O)Sc1ccc2c(SC(=O)C(=C)C)cccc2c1
Task item: Please choose the item with the lower Dissolubility, Ethyl acetate value from this pair: a and b Pick one; state its label.
Reply: a
